This listing pairs variants with measured denaturant midpoint (higher = more stable).
B1: Subtilisin-chymotrypsin inhibitor-2A, P01053 (parent)
chain: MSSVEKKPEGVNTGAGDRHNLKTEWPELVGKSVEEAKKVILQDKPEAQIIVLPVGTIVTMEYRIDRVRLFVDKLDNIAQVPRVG

- Variants of: B1
- EXPERIMENTAL CONTEXT: Hordeum vulgare; pH 6.25; 25 °C; GdnHCl; Fluorescence; MES 50 mM; reversible: yes; structure 2CI2; whole UniProt chain shown
Give the value, in units of M, as a plain number.

Worked cases, denaturant midpoint (higher = more stable) given:
> print(dat)
   mutation.notation  numeric.readout
1               T56S             3.99
2          L52A V58A             2.37
3               P45A             3.09
4          L52V F70L             2.75
5          V58A V80A             1.75
6               D43A             3.51

denaturant midpoint (higher = more stable) reported for this variant L52V V58A F70L : 2.6

Notebook: `D72A` , denaturant midpoint (higher = more stable) read as 2.24

Data provenance is FireProtDB (doi:10.1006/jmbi.1995.0616).
